# study.target: Amine oxidase [flavin-containing] A (Homo sapiens)
# Sequence (P21397 whole entry): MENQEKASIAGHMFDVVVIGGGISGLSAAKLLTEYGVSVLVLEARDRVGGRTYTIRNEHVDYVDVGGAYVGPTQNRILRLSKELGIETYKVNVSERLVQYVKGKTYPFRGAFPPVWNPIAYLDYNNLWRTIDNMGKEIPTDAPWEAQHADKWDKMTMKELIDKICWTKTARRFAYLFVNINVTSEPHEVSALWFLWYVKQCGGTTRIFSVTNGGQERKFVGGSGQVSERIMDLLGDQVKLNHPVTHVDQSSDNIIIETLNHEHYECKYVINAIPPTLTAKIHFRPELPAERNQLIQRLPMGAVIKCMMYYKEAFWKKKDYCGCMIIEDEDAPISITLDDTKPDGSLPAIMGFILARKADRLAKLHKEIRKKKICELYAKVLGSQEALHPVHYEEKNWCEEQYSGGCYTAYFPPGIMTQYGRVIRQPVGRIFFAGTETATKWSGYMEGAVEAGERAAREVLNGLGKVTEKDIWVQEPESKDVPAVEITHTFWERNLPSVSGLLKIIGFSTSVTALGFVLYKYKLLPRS
result.type: IC50 (µM)
Give bare numbers, in µM.

Summary: O=C(NCCC1CCN(Cc2ccccc2)CC1)c1ccc(Cl)cn1 , Amine oxidase [flavin-containing] A (Homo sapiens), IC50 = 13.4

====

# study.target: Acetylcholinesterase (Electrophorus electricus)
# assay.method.text: Inhibition of electric eel AChE using acetylthiocholine iodide as substrate preincubated for 5 mins followed by substrate addition measured after 5 mins by Ellman's method
result.type: IC50 (nM)
Give bare numbers, in nM.

Form: molecule = CN(CCCCCN1C(=O)c2ccccc2S1(=O)=O)Cc1ccccc1 ; IC50 = 36

====

# study.target: Acetylcholinesterase (Electrophorus electricus, UniProt O42275)
# Sequence (O42275 whole entry): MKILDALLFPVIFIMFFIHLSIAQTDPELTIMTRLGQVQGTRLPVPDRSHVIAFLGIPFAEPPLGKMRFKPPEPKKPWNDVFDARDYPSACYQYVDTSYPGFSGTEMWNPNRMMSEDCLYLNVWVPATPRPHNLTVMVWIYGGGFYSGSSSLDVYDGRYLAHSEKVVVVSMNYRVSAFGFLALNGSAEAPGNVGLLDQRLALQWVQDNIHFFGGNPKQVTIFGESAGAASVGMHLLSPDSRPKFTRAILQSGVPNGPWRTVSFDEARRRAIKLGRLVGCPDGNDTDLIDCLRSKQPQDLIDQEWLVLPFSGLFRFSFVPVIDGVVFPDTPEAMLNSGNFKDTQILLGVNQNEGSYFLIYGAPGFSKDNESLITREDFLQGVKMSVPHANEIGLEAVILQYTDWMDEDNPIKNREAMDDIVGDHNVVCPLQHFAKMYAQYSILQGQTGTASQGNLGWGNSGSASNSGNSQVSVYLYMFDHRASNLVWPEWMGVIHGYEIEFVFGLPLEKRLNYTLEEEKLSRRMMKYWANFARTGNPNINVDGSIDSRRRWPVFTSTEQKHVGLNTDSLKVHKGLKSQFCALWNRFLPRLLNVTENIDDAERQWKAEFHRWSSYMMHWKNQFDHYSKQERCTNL
# assay.method.text: Mixed type inhibition of electric eel AChE
result.type: IC50 (µM)
Answers are plain numbers, in µM.

Short answer on Acetylcholinesterase (Electrophorus electricus, UniProt O42275) for Cn1c(=O)n(C)c2cc(S(=O)(=O)NCC3CCN(Cc4ccc(F)cc4)CC3)ccc21 , IC50: 2.05

====

# study.target: Cholinesterase (Equus caballus)
# Sequence (P81908 whole entry): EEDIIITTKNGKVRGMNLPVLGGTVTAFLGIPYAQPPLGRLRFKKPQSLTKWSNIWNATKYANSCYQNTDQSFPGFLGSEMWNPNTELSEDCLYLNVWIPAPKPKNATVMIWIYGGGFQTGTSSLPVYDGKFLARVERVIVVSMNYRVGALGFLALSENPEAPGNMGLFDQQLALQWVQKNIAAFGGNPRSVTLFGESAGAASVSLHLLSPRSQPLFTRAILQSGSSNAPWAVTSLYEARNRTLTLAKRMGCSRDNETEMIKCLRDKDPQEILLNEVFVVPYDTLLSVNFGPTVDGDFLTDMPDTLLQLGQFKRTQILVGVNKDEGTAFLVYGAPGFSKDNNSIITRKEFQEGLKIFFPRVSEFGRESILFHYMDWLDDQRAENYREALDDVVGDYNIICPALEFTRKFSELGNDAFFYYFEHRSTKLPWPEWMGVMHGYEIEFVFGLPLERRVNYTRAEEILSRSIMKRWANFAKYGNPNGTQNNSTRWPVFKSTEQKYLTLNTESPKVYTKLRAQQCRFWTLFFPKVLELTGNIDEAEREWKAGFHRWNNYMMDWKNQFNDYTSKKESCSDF
# assay.method.text: Mixed type inhibition of equine serum BuChE
result.type: pIC50
Numbers only, as −log10 of the molar value.

Entry under test: Cn1c(=O)n(C)c2cc(S(=O)(=O)NCC3CCN(Cc4ccc(F)cc4)CC3)ccc21 . Its pIC50 was 7.51

====

# study.target: Acetylcholinesterase (Homo sapiens, UniProt P22303)
# Sequence (P22303 whole entry): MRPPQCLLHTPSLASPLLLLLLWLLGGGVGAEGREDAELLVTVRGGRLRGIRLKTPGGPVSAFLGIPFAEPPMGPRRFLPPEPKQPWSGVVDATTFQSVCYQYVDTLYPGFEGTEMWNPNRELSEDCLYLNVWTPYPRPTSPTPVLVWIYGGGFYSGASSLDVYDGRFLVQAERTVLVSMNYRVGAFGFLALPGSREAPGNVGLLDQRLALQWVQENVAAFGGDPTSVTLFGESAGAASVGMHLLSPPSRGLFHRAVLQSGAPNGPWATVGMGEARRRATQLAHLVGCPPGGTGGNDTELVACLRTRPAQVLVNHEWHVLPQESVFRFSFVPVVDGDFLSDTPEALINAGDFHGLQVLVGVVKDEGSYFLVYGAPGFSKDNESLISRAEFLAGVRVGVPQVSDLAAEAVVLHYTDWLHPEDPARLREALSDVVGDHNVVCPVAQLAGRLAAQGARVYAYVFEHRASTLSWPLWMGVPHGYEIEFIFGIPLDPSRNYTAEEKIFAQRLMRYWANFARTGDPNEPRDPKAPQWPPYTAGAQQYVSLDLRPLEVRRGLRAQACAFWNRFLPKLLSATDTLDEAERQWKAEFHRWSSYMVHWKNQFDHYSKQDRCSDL
# assay.method.text: Inhibition of recombinant human AChE using acetylthiocholine iodide as substrate preincubated for 20 mins followed by substrate addition measured after 5 mins by Ellman's method
result.type: pIC50
Answers are plain numbers, as −log10 of the molar value.

Reported pIC50 for C#CCNc1nc(NCCCCC2CCN(Cc3ccccc3)CC2)c(C#N)cc1C#N was 9.00

====

# study.target: Amine oxidase [flavin-containing] B (Homo sapiens, UniProt P27338)
# Sequence (P27338 whole entry): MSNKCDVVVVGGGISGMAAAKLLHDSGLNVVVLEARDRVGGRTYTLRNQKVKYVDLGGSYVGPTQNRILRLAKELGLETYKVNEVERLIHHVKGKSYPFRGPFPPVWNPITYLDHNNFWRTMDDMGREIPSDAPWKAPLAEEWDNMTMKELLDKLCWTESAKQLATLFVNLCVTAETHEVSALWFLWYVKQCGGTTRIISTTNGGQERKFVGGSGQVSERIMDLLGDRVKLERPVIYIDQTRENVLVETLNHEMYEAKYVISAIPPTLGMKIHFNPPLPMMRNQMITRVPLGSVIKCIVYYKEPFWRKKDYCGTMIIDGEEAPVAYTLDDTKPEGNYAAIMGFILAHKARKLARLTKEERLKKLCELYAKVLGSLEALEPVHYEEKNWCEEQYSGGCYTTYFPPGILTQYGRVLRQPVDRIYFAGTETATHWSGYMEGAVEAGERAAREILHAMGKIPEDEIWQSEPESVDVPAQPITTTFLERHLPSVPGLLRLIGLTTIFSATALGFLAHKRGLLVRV
# assay.method.text: Inhibition of recombinant human MAOB using tyramine hydrochloride as substrate preincubated for 30 mins followed by substrate addition measured for 1 hr by fluorometric method
result.type: IC50 (µM)
One number for each entry, in µM.

Lab note: measured IC50 of C#CCNc1nc(NCCCC2CCN(Cc3ccccc3)CC2)c(C#N)cc1C#N was 3.95

====

# assay.method.text: Effective permeability of the compound
# Type: ADME
# cond: not told; read-out: Peff
result.type: Papp

Papp reported for this compound O=C(NCCC1CCN(Cc2ccccc2)CC1)c1ccc(Cl)cn1 : 10.4 ×10⁻⁶ cm/s

====

# study.target: Acetylcholinesterase (Electrophorus electricus)
# assay.method.text: Inhibition of electric eel AChE using acetylthiocholine iodide as substrate preincubated for 20 mins followed by substrate addition measured after 5 mins by Ellman's method
result.type: IC50 (nM)
One number for each entry, in nM.

Note to self: IC50 recorded for C#CCNc1nc(NCCCC2CCN(Cc3ccccc3)CC2)c(C#N)cc1C#N was 1.1

====

Assignment: determine reported IC50 for the given compounds.
# study.target: Cholinesterase (Equus caballus)
# assay.method.text: Inhibition of equine serum BuChE
One number for each entry, in nM.

| molecule | result.type | quantitative.result |
| --- | --- | --- |
| COc1cc(/C=C/C(=O)N(CCCC2CCN(Cc3ccccc3)CC2)CC(=O)Nc2c(C)cccc2Cl)ccc1O | IC50 | 52.3 |

Then there is this compound:
Consider O=C(NCCC1CCN(Cc2ccccc2)CC1)c1ccc(Cl)cn1 . Its measured IC50 is 1230
